Kindly state viability, T/C for each of the entries shown.
Test system: KRAS PDC multicell spheroid viability;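 further: drug exposure lasted seven days; 100% = DMSO vehicle wells and lower means fewer viable cells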
ASSAY INFO: Anticancer human tumor 521955-158-R6-J3-PDC patient-derived pancreatic carcinoma cell line growth inhibition [KRAS2]
MEASUREMENT SETUP: second compound 0.1 µM; first compound 1 µM; active compounds read low
One number for each entry, in %.

Please review the entries below; each comes with its answer.
CC1(C)CCC(CN2CCN(c3ccc(C(=O)NS(=O)(=O)c4ccc(NCC5CCOCC5)c([N+](=O)[O-])c4)c(Oc4cnc5[nH]ccc5c4)c3)CC2)=C(c2ccc(Cl)cc2)C1 + CC1OCC2(CCN(c3cnc(Sc4ccnc(N)c4Cl)c(N)n3)CC2)C1N ... 77.6
CC1(C)CCC(CN2CCN(c3ccc(C(=O)NS(=O)(=O)c4ccc(NCC5CCOCC5)c([N+](=O)[O-])c4)c(Oc4cnc5[nH]ccc5c4)c3)CC2)=C(c2ccc(Cl)cc2)C1 + CNCc1ccccc1-c1csc(C(C)Nc2nc(C)nc3cc(OC)c(OC)cc23)c1 ... 97.1
COc1cc(Nc2ncc3c(n2)-c2ccc(Cl)cc2C(c2c(F)cccc2OC)=NC3)ccc1C(=O)O + C=CC(=O)N1CCN(c2nc(=O)n(-c3c(C)ccnc3C(C)C)c3nc(-c4c(O)cccc4F)c(F)cc23)C(C)C1 ... 92.6
Cn1nccc1Nc1nccc(-c2cc3c(s2)C(C)(C)N(CCN2CCOCC2)C3=O)n1 + CC1OCC2(CCN(c3cnc(Sc4ccnc(N)c4Cl)c(N)n3)CC2)C1N ... 81.2

List viability, T/C for every entry below, keeping the order given.
1. O=C(c1cc(Cc2n[nH]c(=O)c3ccccc23)ccc1F)N1CCN(C(=O)C2CC2)CC1 + CNCc1ccccc1-c1csc(C(C)Nc2nc(C)nc3cc(OC)c(OC)cc23)c1
2. CC(C)NCC(C(=O)N1CCN(c2ncnc3c2C(C)CC3O)CC1)c1ccc(Cl)cc1 (stereo not given) + COc1cc2nc(C)nc(NC(C)c3cc(N)cc(C(F)(F)F)c3)c2cc1OC1CCOC1

A.
[71.6, 84.9]

Hey, quick one: what's viability, T/C for each of these?
1. CCNC(=O)CC1N=C(c2ccc(Cl)cc2)c2cc(OC)ccc2-n2c(C)nnc21 (stereo not given) + C=CC(=O)N1CCN(c2nc(OCC3CCCN3C)nc3c2CCN(c2cccc4cccc(C)c24)C3)CC1CC#N
2. COC(=O)c1ccc2c(C(=Nc3ccc(N(C)C(=O)CN4CCN(C)CC4)cc3)c3ccccc3)c(O)[nH]c2c1 + COc1cc2nc(C)nc(NC(C)c3cc(N)cc(C(F)(F)F)c3)c2cc1OC1CCOC1
3. CC1OCC2(CCN(c3cnc(Sc4ccnc(N)c4Cl)c(N)n3)CC2)C1N (stereo not given) + COc1cc2nc(C)nc(NC(C)c3cc(N)cc(C(F)(F)F)c3)c2cc1OC1CCOC1
4. CC(C)NCC(C(=O)N1CCN(c2ncnc3c2C(C)CC3O)CC1)c1ccc(Cl)cc1 (stereo not given) + CC1OCC2(CCN(c3cnc(Sc4ccnc(N)c4Cl)c(N)n3)CC2)C1N
5. CC(=O)OC12COC1CC(O)C1(C)C(=O)C(O)C3=C(C)C(OC(=O)C(O)C(NC(=O)OC(C)(C)C)c4ccccc4)CC(O)(C(OC(=O)c4ccccc4)C21)C3(C)C (stereo not given) + COc1cc2nc(C)nc(NC(C)c3cc(N)cc(C(F)(F)F)c3)c2cc1OC1CCOC1

A.
1: 69.3; 2: 115; 3: 86.5; 4: 68.7; 5: 85.7

Quick batch: viability, T/C for everything below.
1. COc1cc2nccc(Oc3ccc(NC(=O)C4(C(=O)Nc5ccc(F)cc5)CC4)cc3)c2cc1OC + CC1OCC2(CCN(c3cnc(Sc4ccnc(N)c4Cl)c(N)n3)CC2)C1N
2. COc1cc(Nc2ncc3c(n2)-c2ccc(Cl)cc2C(c2c(F)cccc2OC)=NC3)ccc1C(=O)O + CNCc1ccccc1-c1csc(C(C)Nc2nc(C)nc3cc(OC)c(OC)cc23)c1

A.
1. 102
2. 101

Provide viability, T/C for all items below, preserving their order.
1. COc1cc(Nc2ncc3c(n2)-c2ccc(Cl)cc2C(c2c(F)cccc2OC)=NC3)ccc1C(=O)O + CC1OCC2(CCN(c3cnc(Sc4ccnc(N)c4Cl)c(N)n3)CC2)C1N
2. CC1COCCN1c1cc(-c2ccnn2C)c2ccnc(-c3ccn[nH]3)c2n1 (stereo not given) + C=CC(=O)N1CCN(c2nc(OCC3CCCN3C)nc3c2CCN(c2cccc4cccc(C)c24)C3)CC1CC#N

A.
1. 82.2
2. 75
